Field: pIC50. Provide a value for each of the compounds that follow.
tgt: acetylcholinesterase from electric eel source (AChE, E.C. 3.1.1.7, Type V-S) (Electrophorus electricus)
Sequence (O42275 24-633): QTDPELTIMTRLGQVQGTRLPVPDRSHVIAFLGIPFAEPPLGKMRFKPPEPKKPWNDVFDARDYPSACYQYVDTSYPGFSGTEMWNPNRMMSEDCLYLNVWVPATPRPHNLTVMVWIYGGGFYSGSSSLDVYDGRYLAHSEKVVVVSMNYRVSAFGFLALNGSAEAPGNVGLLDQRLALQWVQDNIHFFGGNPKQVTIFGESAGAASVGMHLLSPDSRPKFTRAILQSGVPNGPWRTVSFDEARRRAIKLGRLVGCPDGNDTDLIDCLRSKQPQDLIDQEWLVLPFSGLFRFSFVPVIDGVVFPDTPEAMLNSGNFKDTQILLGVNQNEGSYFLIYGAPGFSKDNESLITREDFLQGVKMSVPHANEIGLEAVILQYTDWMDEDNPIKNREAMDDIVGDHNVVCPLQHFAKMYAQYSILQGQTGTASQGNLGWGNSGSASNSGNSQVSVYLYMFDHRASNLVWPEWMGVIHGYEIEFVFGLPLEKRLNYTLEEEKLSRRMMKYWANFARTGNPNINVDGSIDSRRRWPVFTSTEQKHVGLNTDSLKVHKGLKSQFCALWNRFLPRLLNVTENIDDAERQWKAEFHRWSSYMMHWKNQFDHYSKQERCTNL
protocol: Ellman test, anti-acetylcholinesterase activity
One number for each entry, as −log10 of the molar value.

Previously resolved entries follow.
compound	assayMetric	readoutValue
O=C(c1ccc(F)cc1)N1CCN(CCN2C(=O)c3ccccc3C2=O)CC1 [Compound 4f]	pIC50	4.30
COc1ccccc1C(=O)N1CCN(CCN2C(=O)c3ccccc3C2=O)CC1 [Compound 4g]	pIC50	4.00
COc1cccc(C(=O)N2CCN(CCN3C(=O)c4ccccc4C3=O)CC2)c1 [Compound 4h]	pIC50	5.89

Please look at the following compound next.
What pIC50 value was documented for this compound, O=C(c1ccccc1Cl)N1CCN(CCN2C(=O)c3ccccc3C2=O)CC1 [Compound 4a] ? 3.48
